target: SHP2 N-SH2 domain T42A; experiment: log2 enrichment relative to wild-type ITIM peptide; higher = stronger binding
valueKind: log2 enrichment

[[record]]
binder = "VFSNDYGELDF [PD-1 ITIM pTyr223 peptide variant V221N]"
valuekind = "log2 enrichment"
assayvalue = -1.45

[[record]]
binder = "VFSVMYGELDF [PD-1 ITIM pTyr223 peptide variant D222M]"
valuekind = "log2 enrichment"
assayvalue = 0.307

[[record]]
binder = "VFCVDYGELDF [PD-1 ITIM pTyr223 peptide variant S220C]"
valuekind = "log2 enrichment"
assayvalue = -0.382

[[record]]
binder = "VFSCDYGELDF [PD-1 ITIM pTyr223 peptide variant V221C]"
valuekind = "log2 enrichment"
assayvalue = -0.523

[[record]]
binder = "VFSLDYGELDF [PD-1 ITIM pTyr223 peptide variant V221L]"
valuekind = "log2 enrichment"
assayvalue = -0.962

[[record]]
binder = "VFSVDYGELDA [PD-1 ITIM pTyr223 peptide variant F228A]"
valuekind = "log2 enrichment"
assayvalue = -1.56

[[record]]
binder = "VFSVDYDELDF [PD-1 ITIM pTyr223 peptide variant G224D]"
valuekind = "log2 enrichment"
assayvalue = -0.746

[[record]]
binder = "VFSVDYGEQDF [PD-1 ITIM pTyr223 peptide variant L226Q]"
valuekind = "log2 enrichment"
assayvalue = -1.5

[[record]]
binder = "VFSVDYGEADF [PD-1 ITIM pTyr223 peptide variant L226A]"
valuekind = "log2 enrichment"
assayvalue = -1.51

[[record]]
binder = "VFGVDYGELDF [PD-1 ITIM pTyr223 peptide variant S220G]"
valuekind = "log2 enrichment"
assayvalue = -0.124


This collection of values is drawn from the supplement of paper PMC10369915.
